All values here come from the EternaBench riboswitch data.

Tested on: MS2 coat protein
experimental_protocol: apparent Kd, MS2 coat protein; higher = weaker binding; RNA-MaP array; theophylline 2 mM where present
applied_conditions: designed as: OFF switch for theophylline; no ligand
# Lookup of reported apparent Kd keyed by entry
Your answer should be a plain number; it is taken to be in nM.

# example entries with known answers
* AUAUGAUCAUAUGAUACCAGAAAUGGUAUUCCUUUGUUUCUUACAUGAGGAUCACCCAUGUUCCCUUGGCAGCAUAUGAUCAUAU | 187
* AUCUCAUAGAGUGAUACCAGACUACAUGAGGAUCACCCAUGUUACAUUUAAAUAUCAUUUGUCCCUUGGCAGCACAUGAAGUACA | 28
* GAGCUGAUGUAGAGAUUUUAUUUCUGAGAUACCAGUACAGAAAUGUACCCUUGGCAGCUCAGCUUUACAUGAGGAUCACCCAUGU | 17.2

Which value of apparent Kd has been reported for ACAUGAGGAUCACCCAUGUUCCUCAUUGAUACCAGUGAAUUUAGACGCCCUUGGCAGCGAGUUUUUUUAUAAGAUGUUUUUUUUU in the records? 545
